Ref: ChEMBL document CHEMBL1140754

Tested on: Mythimna separata
measurement.protocol: Larvicidal activity against Oriental armyworm
Format: functional
The entries below are paired with their reported log10(LC50).
// units: µg/mL (pre-log); metric: LC50; scale: log10

molecule=Cc1cc(C)cc(C(=O)N(NC(=O)c2ccc3c(c2Cl)CCCO3)C(C)(C)C)c1 result=0.35

Switching to the query record.
Request the reported log10(LC50) associated with CCc1ccc(C(=O)NN(C(=O)c2cc(C)cc(C)c2)C(C)(C)C)cc1 [TEBUFENOZIDE]
0.20

###

Test system: Mythimna separata
measurement.protocol: Larvicidal activity against Oriental armyworm
Assay type: functional
This section presents compounds with their documented LC50 values.

Reference set, count: 10
smiles_notation=COc1ccc(C(=O)N(NC(=O)c2ccc3c(c2Cl)CCCO3)C(C)(C)C)cc1 result="25.1 µg/mL"
smiles_notation=CC(C)(C)N(NC(=O)c1ccc2c(c1Cl)CCCO2)C(=O)c1ccc([N+](=O)[O-])cc1Cl result="8.47 µg/mL"
smiles_notation=CC(C)(C)N(NC(=O)c1ccc2c(c1Cl)CCCO2)C(=O)c1cc(Cl)cc(Cl)c1 result="4.11 µg/mL"
smiles_notation=CC(C)(C)N(NC(=O)c1ccc2c(c1Cl)CCCO2)C(=O)c1cccc(I)c1 result="30.2 µg/mL"
smiles_notation=CC(C)(C)N(NC(=O)c1ccc2c(c1Cl)CCCO2)C(=O)c1c(Cl)cc(Cl)cc1Cl result="> 500 µg/mL"
smiles_notation=CC(C)(C)N(NC(=O)c1ccc2c(c1Cl)CCCO2)C(=O)c1cccc(Cl)c1 result="5.98 µg/mL"
smiles_notation=Cc1cc(C)c(C(=O)N(NC(=O)c2ccc3c(c2Cl)CCCO3)C(C)(C)C)c(C)c1 result="> 500 µg/mL"
smiles_notation=CC(C)(C)N(NC(=O)c1ccc2c(c1Cl)CCCO2)C(=O)c1ccc(Cl)cc1Cl result="4.11 µg/mL"
smiles_notation=Cc1cc(C)cc(C(=O)N(NC(=O)c2ccc3c(c2Cl)OCCO3)C(C)(C)C)c1 result="1.4 µg/mL"
smiles_notation=Cc1cccc(C(=O)N(NC(=O)c2ccc3c(c2Cl)CCCO3)C(C)(C)C)c1 result="2.78 µg/mL"

I am curious: what LC50 value has been reported for CC(C)(C)N(NC(=O)c1ccccc1)C(=O)c1ccccc1 ?
24.4 µg/mL

Would you mind telling me what LC50 value was observed for CC(C)(C)N(NC(=O)c1ccc2c(c1Cl)CCCO2)C(=O)c1c(Cl)cc(C(F)(F)F)cc1Cl ?
> 500 µg/mL

Using the record for CC(C)(C)N(NC(=O)c1ccc2c(c1Cl)CCCO2)C(=O)c1ccccc1 , report its LC50.
5 µg/mL

Suppose we examine the compound Cc1ccccc1C(=O)N(NC(=O)c1ccc2c(c1Cl)CCCO2)C(C)(C)C ; what LC50 value has been reported?
31.3 µg/mL

# lookup: LC50 of CC(C)(C)N(NC(=O)c1ccc2c(c1Cl)CCCO2)C(=O)c1ccccc1Cl
10.8 µg/mL

Which LC50 value belongs to Cc1ccc(C(=O)N(NC(=O)c2ccc3c(c2Cl)CCCO3)C(C)(C)C)cc1 ?
5.57 µg/mL

May I ask what LC50 has been recorded for Cc1ccc(C(=O)N(NC(=O)c2ccc3c(c2Cl)CCCO3)C(C)(C)C)c(C)c1 ?
6.14 µg/mL
